Data provenance is PubChem BioAssay.

protocol-text: JC-1 mitochondrial signal, unstimulated HepG2 cells – cell-based, JC-1 fluorescence, 24 h, 100 nL compound, profiling panel (AID 1167); further: test concentration not given here
condition-details: HepG2 mitochondrial potential, higher = more signal
measured-attribute: z-score

- CCOC(=O)C1=CC[C@@H](c2ccc(OC)cc2)N(S(=O)(=O)c2ccc(C)cc2)[C@H]1c1ccc(C)cc1: 2.39
- C=CCOC(=O)[C@H]1[C@@H]2C(=O)O[C@@H](c3ccccc3)[C@@H](c3ccccc3)N2[C@@H](c2ccc(OCCOC(=O)[C@@H]3C[C@@H]4C(=O)N[C@@H](CCCCNC(C)=O)C(=O)N4[C@@H]3c3cccc(OCCO)c3)cc2)[C@]12C(=O)Nc1ccccc12: 1.24
- COCCCNC(=O)[C@@]1(Sc2ccc(C)cc2)CC(=O)N(Cc2ccccc2C(F)(F)F)[C@@H]1c1ccc(CO)cc1I: -0.33
